TARGET_SYSTEM: T1, Recombinant Mouse PD-L1/CD274 Protein (mPD-L1-his) (mouse, UniProt Q9EP73 19-238)
T1 construct: range 19-238; ACRO Biosystem PD1-M5220; also called mouse PD-L1-his
T1 sequence (Q9EP73 other isoform, or with tags, fused parts or gaps limits assumed): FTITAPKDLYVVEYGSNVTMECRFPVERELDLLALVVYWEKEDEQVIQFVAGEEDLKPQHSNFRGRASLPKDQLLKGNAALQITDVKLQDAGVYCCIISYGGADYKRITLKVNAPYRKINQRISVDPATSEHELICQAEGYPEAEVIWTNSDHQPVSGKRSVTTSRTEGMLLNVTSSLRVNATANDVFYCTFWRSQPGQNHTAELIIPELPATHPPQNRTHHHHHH
MEASUREMENT_PROTOCOL: ELISA, 20 ug/ml antibody on coated mouse PD-L1 (his-tagged per text, mPD-L1-Fc per sheet title)
OUTCOME_MEASURE: binding result

18G4 (antibody, V domains shown, Mouse monoclonal from hybridoma; also called mouse monoclonal antibody 18G4) VH: QVQLQQPGTALVKPGASVKLSCKASGYTFSSYYIHWVKQRPGQGLEWIGNINPFNGGSIYNEKFKNKASLTVDTSSNTAYMQLSSLTSEDSAVYYCARWHFDYWGQGTSLTVSS VL: DIVMTQSPSSLAVTAGEKVTLKCKSSQSLLWSGNQNNYLSWYQQKQGQPPKLLIYGASIRESWVPDRFTGSGSGTDFTLTIGNVSAEDLAVYYCQHNHGSFLPYTFGGGTRLEIK    binds

Each recorded value in this set is attributed to patent US20210009693A1.
